Target: hCB1R (Homo sapiens)
Test: HTRF cAMP assay, antagonist mode (forskolin with CP55,940)
Settings: read-out: Variation of Emax
Can you tell me Emax for the items I'm about to list?
Answers are plain numbers, in %.

Answered cases to consult:
CCC(CC)(NC(=O)c1cc(-c2cc(C(F)(F)F)ccc2C(F)(F)F)n(C[C@H]2CCCO2)c1C)C(=O)NCCOCCOCCNC(=O)OC(C)(C)C [Compound 22b]	-105
CCOC(=O)C(CC)(CC)NC(=O)c1cnc(OCC2CC2)c(-c2ccc(F)cc2)c1	-116

--- query ---
// query Could you tell me which Emax is on file for CCC(CC)(NC(=O)c1nn(-c2ccc(Cl)cc2Cl)c(-c2ccc(Cl)cc2)c1C)C(=O)NCCOCCOCCNC(=O)OC(C)(C)C [Compound 23b] ?
// result -96

* * *

Target: hCB1R (Homo sapiens, UniProt P21554)
Sequence (P21554 whole entry): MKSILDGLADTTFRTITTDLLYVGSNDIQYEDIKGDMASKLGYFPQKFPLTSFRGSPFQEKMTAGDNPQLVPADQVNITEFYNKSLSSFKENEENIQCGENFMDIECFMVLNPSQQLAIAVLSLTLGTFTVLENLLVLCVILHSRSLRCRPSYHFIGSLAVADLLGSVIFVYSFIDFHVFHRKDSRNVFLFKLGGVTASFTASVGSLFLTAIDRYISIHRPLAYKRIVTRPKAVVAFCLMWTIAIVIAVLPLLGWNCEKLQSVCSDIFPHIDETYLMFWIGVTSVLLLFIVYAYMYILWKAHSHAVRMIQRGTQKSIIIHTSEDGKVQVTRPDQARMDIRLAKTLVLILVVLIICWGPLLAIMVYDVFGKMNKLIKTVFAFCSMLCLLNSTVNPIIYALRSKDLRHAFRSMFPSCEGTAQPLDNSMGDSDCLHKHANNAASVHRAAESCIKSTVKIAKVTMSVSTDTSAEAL
Assay: [3H]CP55,940 displacement assay on CHO membranes, CB1R
Format: binding
Design: host or cells: CHO-K1 (CHOK1hCB1_bgal)
Conditions: [3H]CP55,940 displacement, CHO membranes stably expressing human CB1R; means of three experiments; read-out: hCB1R Ki
measuredEndpoint: Ki

Answered examples (2):
CCC(CC)(NC(=O)c1cnc(OCC2CC2)c(-c2ccc(F)cc2)c1)C(=O)NCCOCCOCCNC(=O)c1ccc2c(c1)C(=O)OC21c2ccc(N(C)C)cc2Oc2cc(N(C)C)ccc21 [Compound 41]	> 10 µM
CCC(CC)(NC(=O)c1cc(-c2cc(C(F)(F)F)ccc2C(F)(F)F)n(C[C@H]2CCCO2)c1C)C(=O)NCCOCCNC(=O)OC(C)(C)C [Compound 22a]	1.42 µM

// query Endpoint output: Ki of CCC(CC)(NC(=O)c1cnc(OCCOC)c(-c2ccc(Cl)cc2)n1)C(=O)NCCOCCOCCNC(=O)OC(C)(C)C [Compound 26] . Value?
// result > 10 µM

* * *

Target: hCB1R (Homo sapiens, UniProt P21554)
Test: HTRF cAMP assay, agonist / inverse agonist mode
measuredEndpoint: pEC50
Numbers only, as −log10 of the molar value.

// query What is its pEC50 for hCB1R (Homo sapiens, UniProt P21554)? Entry: CCOC(=O)C(CC)(CC)NC(=O)c1nn(Cc2cccc(F)c2)c2ccccc12
// result 8.49

* * *

Target: hCB1R (Homo sapiens)
Test: [3H]CP55,940 displacement assay on CHO membranes, CB1R
Assay type: binding
Design: host or cells: CHO-K1 (CHOK1hCB1_bgal)
Conditions: hCB1R Ki, [3H]CP55,940 displacement, CHO membranes stably expressing human CB1R; means of three experiments
Would you kindly list pKi for each of these molecules?
One number for each entry, as −log10 of the molar value.

The cases that follow already have their pKi on record.
CCOC(=O)C(CC)(CC)NC(=O)c1cnc(OCC2CC2)c(-c2ccc(F)cc2)c1	6.51
CCC(CC)(NC(=O)c1cnc(OCC2CC2)c(-c2ccc(F)cc2)c1)C(=O)NCCOCCOCCNC(=O)OC(C)(C)C	5.51
CCC(CC)(NC(=O)c1cc(-c2cc(C(F)(F)F)ccc2C(F)(F)F)n(C[C@H]2CCCO2)c1C)C(=O)NCCOCCOCCNc1ccc([N+](=O)[O-])c2nonc12	7.01
CCC(CC)(NC(=O)c1nn(-c2ccc(Cl)cc2Cl)c(-c2ccc(Cl)cc2)c1C)C(=O)NCCOCCOCCOCCOCCNC(=O)OC(C)(C)C [Compound 23d]	6.22
CCC(CC)(NC(=O)c1nn(Cc2cccc(F)c2)c2ccccc12)C(=O)NCCOCCOCCNc1ccc([N+](=O)[O-])c2nonc12	5.93
CCOC(=O)C(CC)(CC)NC(=O)c1cnc(OCCOC)c(-c2ccc(Cl)cc2)n1	6.09
CCC(CC)(NC(=O)c1nn(-c2ccc(Cl)cc2Cl)c(-c2ccc(Cl)cc2)c1C)C(=O)NCCOCCOCCOCCNC(=O)OC(C)(C)C [Compound 23c]	6.40
CCC(CC)(NC(=O)c1nn(-c2ccc(Cl)cc2Cl)c(-c2ccc(Cl)cc2)c1C)C(=O)NCCOCCOCCNc1ccc([N+](=O)[O-])c2nonc12	6.37

The record that follows has no pKi shown yet.
// query Quick one: pKi for CCC(CC)(NC(=O)c1nn(-c2ccc(Cl)cc2Cl)c(-c2ccc(Cl)cc2)c1C)C(=O)NCCOCCOCCNC(=O)OC(C)(C)C [Compound 23b] ?
// result 6.86

* * *

For each of the compounds below, state its hCB2R % displacement at 10 µM.
Molecular target: human CB2R (Homo sapiens, UniProt P34972)
Construct: host or cells: CHO-K1 (CHOK1hCB2_bgal)
Sequence (P34972 whole entry): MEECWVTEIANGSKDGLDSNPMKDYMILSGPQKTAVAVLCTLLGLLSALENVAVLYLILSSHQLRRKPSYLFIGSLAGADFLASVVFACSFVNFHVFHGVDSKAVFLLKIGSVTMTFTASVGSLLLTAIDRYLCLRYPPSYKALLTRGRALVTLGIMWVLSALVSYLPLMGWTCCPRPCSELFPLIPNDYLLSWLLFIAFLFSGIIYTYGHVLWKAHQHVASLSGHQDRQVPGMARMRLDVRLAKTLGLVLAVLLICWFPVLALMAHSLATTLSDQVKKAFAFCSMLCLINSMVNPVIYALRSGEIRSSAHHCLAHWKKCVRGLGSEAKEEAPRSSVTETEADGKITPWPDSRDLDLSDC
Assay: [3H]CP55,940 displacement assay on CHO membranes, CB2R
Type: binding
Settings: [3H]CP55,940 displacement at 10 µM compound, ± SEM
Give bare numbers, in %.

CCC(CC)(NC(=O)c1cc(-c2cc(C(F)(F)F)ccc2C(F)(F)F)n(C[C@H]2CCCO2)c1C)C(=O)NCCOCCNC(=O)OC(C)(C)C [Compound 22a]	20
CCC(CC)(NC(=O)c1cc(-c2cc(C(F)(F)F)ccc2C(F)(F)F)n(C[C@H]2CCCO2)c1C)C(=O)NCCOCCOCCNc1ccc([N+](=O)[O-])c2nonc12 [Compound 28]	41

Dear colleague, could you send me hCB2R % displacement at 10 µM for each of the items below? Thanks.
1. CCC(CC)(NC(=O)c1nn(-c2ccc(Cl)cc2Cl)c(-c2ccc(Cl)cc2)c1C)C(=O)NCCOCCOCCNC(=O)OC(C)(C)C [Compound 23b]
2. CCC(CC)(NC(=O)c1cnc(OCCOC)c(-c2ccc(Cl)cc2)n1)C(=O)NCCOCCOCCNC(=O)c1ccc2c(c1)C(=O)OC21c2ccc(N(C)C)cc2Oc2cc(N(C)C)ccc21 [Compound 35]
3. CCC(CC)(NC(=O)c1nn(-c2ccc(Cl)cc2Cl)c2c1CCCc1cc(Cl)ccc1-2)C(=O)NCCOCCOCCNC(=O)c1ccc2c(c1)C(=O)OC21c2ccc(N(C)C)cc2Oc2cc(N(C)C)ccc21 [Compound 33]

// result
1: 44; 2: 2; 3: 21

// query Please provide the recorded hCB2R % displacement at 10 µM for CCC(CC)(NC(=O)c1cnc(OCC2CC2)c(-c2ccc(F)cc2)c1)C(=O)NCCOCCOCCNC(=O)c1ccc2c(c1)C(=O)OC21c2ccc(N(C)C)cc2Oc2cc(N(C)C)ccc21 [Compound 41] , tested on human CB2R (Homo sapiens, UniProt P34972).
// result 27

* * *

Target: hCB1R (Homo sapiens)
Experiment: [3H]CP55,940 displacement assay on CHO membranes, CB1R
Assay type: binding
Design: host or cells: CHO-K1 (CHOK1hCB1_bgal)
Conditions: [3H]CP55,940 displacement at 10 µM compound, ± SEM
Would you mind telling me the reported hCB1R % displacement at 10 µM of each entry?

CCC(CC)(NC(=O)c1cnc(OCCOC)c(-c2ccc(Cl)cc2)n1)C(=O)NCCOCCOCCNC(=O)OC(C)(C)C	32 ± 6%
CCC(CC)(NC(=O)c1cnc(OCCOC)c(-c2ccc(Cl)cc2)n1)C(=O)NCCOCCOCCNc1ccc([N+](=O)[O-])c2nonc12	32 ± 6%
CCC(CC)(NC(=O)c1cnc(OCCOC)c(-c2ccc(Cl)cc2)n1)C(=O)NCCOCCOCCNC(=O)c1ccc2c(c1)C(=O)OC21c2ccc(N(C)C)cc2Oc2cc(N(C)C)ccc21	-6 ± 5%
CCC(CC)(NC(=O)c1nn(-c2ccc(Cl)cc2Cl)c2c1CCCc1cc(Cl)ccc1-2)C(=O)NCCOCCOCCNC(=O)OC(C)(C)C	28 ± 3%
CCC(CC)(NC(=O)c1nn(-c2ccc(Cl)cc2Cl)c2c1CCCc1cc(Cl)ccc1-2)C(=O)NCCOCCOCCNc1ccc([N+](=O)[O-])c2nonc12	35 ± 6%
CCC(CC)(NC(=O)c1cnc(OCC2CC2)c(-c2ccc(F)cc2)c1)C(=O)NCCOCCOCCNc1ccc([N+](=O)[O-])c2nonc12	34 ± 1%

I need hCB1R % displacement at 10 µM for every entry listed below, if you could help.
1. CCC(CC)(NC(=O)c1nn(-c2ccc(Cl)cc2Cl)c2c1CCCc1cc(Cl)ccc1-2)C(=O)NCCOCCOCCNC(=O)c1ccc2c(c1)C(=O)OC21c2ccc(N(C)C)cc2Oc2cc(N(C)C)ccc21
2. CCC(CC)(NC(=O)c1nn(-c2ccc(Cl)cc2Cl)c(-c2ccc(Cl)cc2)c1C)C(=O)NCCOCCOCCNC(=O)c1ccc2c(c1)C(=O)OC21c2ccc(N(C)C)cc2Oc2cc(N(C)C)ccc21
3. CCC(CC)(NC(=O)c1cnc(OCC2CC2)c(-c2ccc(F)cc2)c1)C(=O)NCCOCCOCCNC(=O)c1ccc2c(c1)C(=O)OC21c2ccc(N(C)C)cc2Oc2cc(N(C)C)ccc21
4. CCC(CC)(NC(=O)c1nn(Cc2cccc(F)c2)c2ccccc12)C(=O)NCCOCCOCCNC(=O)OC(C)(C)C

// result
-5 ± 1%
37 ± 5%
9 ± 1%
48 ± 2%
